subject_of_test: Indoleamine 2,3-dioxygenase 1 (Homo sapiens, UniProt P14902)
Sequence (P14902 whole entry): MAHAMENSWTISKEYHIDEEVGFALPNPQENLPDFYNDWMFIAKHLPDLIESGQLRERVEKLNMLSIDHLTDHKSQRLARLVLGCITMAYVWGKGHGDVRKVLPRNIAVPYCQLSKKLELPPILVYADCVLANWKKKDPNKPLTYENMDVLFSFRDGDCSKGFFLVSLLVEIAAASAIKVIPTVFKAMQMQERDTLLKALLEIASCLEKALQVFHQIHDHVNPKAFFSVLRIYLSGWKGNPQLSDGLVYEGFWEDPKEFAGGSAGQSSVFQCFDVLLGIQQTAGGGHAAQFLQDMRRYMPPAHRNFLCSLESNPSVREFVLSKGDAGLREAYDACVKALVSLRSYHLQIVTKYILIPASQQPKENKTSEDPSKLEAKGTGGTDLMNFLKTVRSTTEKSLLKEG
assay_overview: Inhibition of IDO in human HeLa cells after 24 hrs by spectrophotometry
recorded_endpoint: EC50 (nM)

Here is how some compounds turned out for EC50.
compound: Cc1cccc(NNS(=O)(=O)c2ccc(C(=O)NCC(=O)O)cc2)c1
subject_of_test: Indoleamine 2,3-dioxygenase 1 (Homo sapiens, UniProt P14902)
EC50 [nM]: 271
--
compound: Cc1cccc(NNS(=O)(=O)c2ccc(S(C)(=O)=O)cc2)c1
subject_of_test: Indoleamine 2,3-dioxygenase 1 (Homo sapiens, UniProt P14902)
EC50 [nM]: 7850
--
compound: CC(=O)Nc1ccc(S(=O)(=O)NNc2cccc(Br)c2)cc1
subject_of_test: Indoleamine 2,3-dioxygenase 1 (Homo sapiens, UniProt P14902)
EC50 [nM]: 7560
--
compound: CC(=O)Nc1ccc(S(=O)(=O)NNc2ccc(Br)cc2)cc1
subject_of_test: Indoleamine 2,3-dioxygenase 1 (Homo sapiens, UniProt P14902)
EC50 [nM]: 85
--
compound: O=S(=O)(NNc1ccc(Br)cc1)c1ccccc1
subject_of_test: Indoleamine 2,3-dioxygenase 1 (Homo sapiens, UniProt P14902)
EC50 [nM]: 128
--
compound: O=S(=O)(NNc1ccc(Br)cc1)c1ccc(Br)cc1
subject_of_test: Indoleamine 2,3-dioxygenase 1 (Homo sapiens, UniProt P14902)
EC50 [nM]: 374
--
compound: O=C(O)COc1ccc(S(=O)(=O)NNc2ccc(Br)cc2)cc1
subject_of_test: Indoleamine 2,3-dioxygenase 1 (Homo sapiens, UniProt P14902)
EC50 [nM]: 152
--
compound: CC(=O)Nc1ccc(S(=O)(=O)NNc2ccc(F)cc2)cc1
subject_of_test: Indoleamine 2,3-dioxygenase 1 (Homo sapiens, UniProt P14902)
EC50 [nM]: 609
--
compound: N#Cc1ccc(S(=O)(=O)NNc2ccc(Br)cc2)cc1
subject_of_test: Indoleamine 2,3-dioxygenase 1 (Homo sapiens, UniProt P14902)
EC50 [nM]: 134

P = CC(=O)Nc1ccc(S(=O)(=O)NNc2ccc(Cl)cc2)cc1
Q = CC(=O)Nc1ccc(S(=O)(=O)NNc2ccc(S(N)(=O)=O)cc2)cc1
Enquiry: Parameter metric = EC50. Return the lower-valued option from P and Q . API: response body contains the label of the selected item.
Return: P

====

subject_of_test: Indoleamine 2,3-dioxygenase 1 (Homo sapiens)
assay_overview: Inhibition of human recombinant IDO expressed in Escherichia coli using N-formylkynurenine as substrate incubated for 1 hr prior to NaOH addition measured after 4 hrs by spectrophotometry
pIC50: −log10 of the molar value.
recorded_endpoint: pIC50

I = CC(=O)Nc1ccc(S(=O)(=O)NNc2cc(Cl)cc(Cl)c2)cc1
II = O=C(O)CCc1ccc(S(=O)(=O)NNc2ccc(Br)cc2)cc1
III = Cc1cccc(NNS(=O)(=O)c2ccc(S(C)(=O)=O)cc2)c1
IV = CC(=O)Nc1ccc(S(=O)(=O)NNc2cc(F)cc(F)c2)cc1
V = CC(=O)Nc1ccc(S(=O)(=O)NNc2ccccc2)cc1
Enquiry: Task for the reader: place the compounds above in descending order according to recorded pIC50. # format: label list in the order the request specifies
Return: III, V, II, I, IV
(III: 7.37, V: 7.15, II: 6.85, I: 6.45, IV: 5.76)

1 = COC(=O)CCc1ccc(S(=O)(=O)NNc2ccc(Br)cc2)cc1
2 = COc1ccc(NNS(=O)(=O)c2ccc(NC(C)=O)cc2)cc1
3 = CC(=O)Nc1ccc(S(=O)(=O)NNc2ccc(S(N)(=O)=O)cc2)cc1
Enquiry: Ordering: ascending pIC50. Response format: the labels, sorted as the prompt asks.
Return: 3, 2, 1

I = CC(=O)Nc1ccc(S(=O)(=O)NNc2ccc(Cl)cc2)cc1
II = Cc1cccc(NNS(=O)(=O)c2ccc(C(=O)NCC(=O)O)cc2)c1
Enquiry: # returns the entry with the larger pIC50; inputs I and II Pick one; state its label.
Return: II
